- System Tested: Fuc(a1-2)Gal(b1-4)GlcNAc(b1-3)Gal(b1-4)GlcNAc(b1-3)Gal(b1-4)GlcNAc
- Measurement Protocol: glycan array binding signal (z-score within array); higher = stronger binding
- Experimental Parameters: glycan notation: IUPAC condensed, linker removed
About 410 targets per protein were measured; listed, in parts, are those with the strongest signals and a random draw of the rest.
Endpoint Name: glycan array binding signal (z-score)
Please give only the number in your answer, with no unit.

(Q) Query (binder): Gal 10 (Homo sapiens), Q05315 (protein) MSLLPVPYTEAASLSTGSTVTIKGRPLVCFLNEPYLQVDFHTEMKEESDIVFHFQVCFGRRVVMNSREYGAWKQQVESKNMPFQDGQEFELSISVLPDKYQVMVNGQSSYTFDHRIKPEAVKMVQVWRDISLTKFNVSYLKR ; field requested: glycan array binding signal (z-score)
(A) -0.692
